# Test system: KGIa/ABTR
# Experiment Description: Cell viability, panel of AML cell lines
# Type: cell-based
# Condition Description: Homo sapiens; KGIa/ABTR cells, 24 h; read-out: EC50 24 h
# Experimental: Representative human AML cell lines (FIG. 2A; upper and lower panels) HL60/VCR and (FIG. 2B; upper and lower panels) OCI-AML2 were treated with SACLAC for 24 and 48 hours. Viability was assessed by MTS assay at 24 and 48 hours and apoptosis was assessed by flow cytometry at 48 hours. Upper panels represent % viability and lower panels indicate % apoptosis. Two representative human-derived AML cell lines, HL60/VCR and OCI-AML2, are shown. […]
pEC50: −log10 of the molar value.
Property: pEC50

INSERT INTO measurements (substance_smiles, reported_result) VALUES
  ('CCCCCCCCCCCCCCC[C@@H](O)[C@H](CO)NC(=O)CCl', 5.54);

###

# Test system: KGI/ABTR
# Experiment Description: Cell viability, panel of AML cell lines
# Assay type: cell-based
# Condition Description: Homo sapiens; KGI/ABTR cells, 48 h; read-out: EC50 48 h
Property: EC50 (µM)

INSERT INTO assay_data (substance_smiles, reported_result) VALUES
  ('CCCCCCCCCCCCCCC[C@@H](O)[C@H](CO)NC(=O)CCl', 4.1);

###

# Experimental System: acid ceramidase (AC) (Homo sapiens)
# Sequence (Q13510 143-395 limits assumed): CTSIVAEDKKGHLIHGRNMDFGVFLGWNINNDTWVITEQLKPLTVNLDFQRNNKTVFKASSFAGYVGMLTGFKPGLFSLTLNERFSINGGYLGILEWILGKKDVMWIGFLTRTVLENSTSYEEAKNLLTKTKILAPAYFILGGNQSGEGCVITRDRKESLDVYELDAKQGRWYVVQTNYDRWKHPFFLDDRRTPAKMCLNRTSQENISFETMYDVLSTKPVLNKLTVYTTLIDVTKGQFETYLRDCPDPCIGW
# Sequence (Q13510 22-142 limits assumed): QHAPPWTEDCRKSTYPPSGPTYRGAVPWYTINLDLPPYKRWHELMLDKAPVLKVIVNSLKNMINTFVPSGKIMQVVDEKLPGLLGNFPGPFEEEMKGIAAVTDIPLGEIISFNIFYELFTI
# Experiment Description: AC inhibition in lysates from cells overexpressing the enzyme
# Assay type: biochemical
# Parameters: expressed in transfected cells
# Condition Description: lysates from cells overexpressing the enzyme; read-out: IC50, AC inhibition
Property: IC50 (µM)

INSERT INTO assay_data (compound, reported_result) VALUES
  ('CCCCCCCCCCCCCCC[C@@H](O)[C@H](CO)NC(=O)CCl [SACLAC]', 0.046);

###

# Test system: normal samples (PBMCs and/or CD34+ cells)
# Experiment Description: Viability of normal samples, MTS and Cell Titer Glo (FIG. 4, Table 2)
# Assay type: cell-based
# Condition Description: 24 hours; SACLAC: PBMC1, PBMC2, CD34+1, CD34+2; SABRAC: PBMC1, PBMC2; order of samples not given; read-out: EC50, single normal samples (FIG. 4A, 4B)
Property: EC50 (nM)

INSERT INTO assay_data (compound, reported_result) VALUES
  ('CCCCCCCCCCCCCCC[C@@H](O)[C@H](CO)NC(=O)CBr [SABRAC, reference compound]', 600);

###

# Experimental System: acid ceramidase (AC) (Homo sapiens, UniProt Q13510)
# Experiment Description: AC inhibition in lysates from cells overexpressing the enzyme
# Assay type: biochemical
# Parameters: expressed in transfected cells
# Condition Description: irreversible binding to its binding site; read-out: IC50
Property: IC50 (nM)

INSERT INTO measurements (compound, experimental_system, property, reported_result) VALUES
  ('CCCCCCCCCCCCCCC[C@@H](O)[C@H](CO)NC(=O)CCl [SACLAC]', 'acid ceramidase (AC) (Homo sapiens, UniProt Q13510)', 'IC50', 46.7);

###

# System: OCI-AML3
# Experiment Description: Cell viability, panel of AML cell lines
# Assay type: cell-based
# Condition Description: Homo sapiens, OCI-AML-3; OCI-AML3 cells, 48 h; read-out: EC50 48 h
pEC50: −log10 of the molar value.
Property: pEC50

INSERT INTO measurements (substance_smiles, reported_result) VALUES
  ('CCCCCCCCCCCCCCC[C@@H](O)[C@H](CO)NC(=O)CCl', 6.40);

###

# Tested on: MV4-11
# Experiment Description: Cell viability, panel of AML cell lines
# Format: cell-based
# Condition Description: Homo sapiens; MV4-11 cells, 48 h; read-out: EC50 48 h
# Experimental: Representative human AML cell lines (FIG. 2A; upper and lower panels) HL60/VCR and (FIG. 2B; upper and lower panels) OCI-AML2 were treated with SACLAC for 24 and 48 hours. Viability was assessed by MTS assay at 24 and 48 hours and apoptosis was assessed by flow cytometry at 48 hours. Upper panels represent % viability and lower panels indicate % apoptosis. Two representative human-derived AML cell lines, HL60/VCR and OCI-AML2, are shown. […]
Property: EC50 (nM)

INSERT INTO measurements (substance_smiles, reported_result) VALUES
  ('CCCCCCCCCCCCCCC[C@@H](O)[C@H](CO)NC(=O)CCl', 1300);

###

# System: SKM1
# Experiment Description: Cell viability, panel of AML cell lines
# Type: cell-based
# Condition Description: Homo sapiens, SKM-1; SKM1 cells, 24 h; read-out: EC50 24 h
pEC50: −log10 of the molar value.
Property: pEC50

INSERT INTO results (substance_smiles, property, reported_result) VALUES
  ('CCCCCCCCCCCCCCC[C@@H](O)[C@H](CO)NC(=O)CCl', 'pEC50', 5.80);

###

# Experiment Description: Maximum tolerated dose in vivo
# Condition Description: preliminary results (not shown)
Property: MTD

INSERT INTO measurements (substance_smiles, property, reported_result) VALUES
  ('CCCCCCCCCCCCCCC[C@@H](O)[C@H](CO)NC(=O)CCl', 'MTD', '≥ 50 mg/kg');

###

# System: THP-1
# Experiment Description: Cell viability, panel of AML cell lines
# Format: cell-based
# Condition Description: Homo sapiens; THP-1 cells, 24 h; read-out: EC50 24 h
# Method: Representative human AML cell lines (FIG. 2A; upper and lower panels) HL60/VCR and (FIG. 2B; upper and lower panels) OCI-AML2 were treated with SACLAC for 24 and 48 hours. Viability was assessed by MTS assay at 24 and 48 hours and apoptosis was assessed by flow cytometry at 48 hours. Upper panels represent % viability and lower panels indicate % apoptosis. Two representative human-derived AML cell lines, HL60/VCR and OCI-AML2, are shown. […]
pEC50: −log10 of the molar value.
Property: pEC50

INSERT INTO assay_data (molecule, reported_result) VALUES
  ('CCCCCCCCCCCCCCC[C@@H](O)[C@H](CO)NC(=O)CCl [SACLAC]', 5.59);

###

# Tested on: normal samples (PBMCs and/or CD34+ cells)
# Experiment Description: Viability of normal samples, MTS and Cell Titer Glo (FIG. 4, Table 2)
# Type: cell-based
# Condition Description: PBMC, 24 h, mean of normal samples (PBMCs and/or CD34+ cells), 24 hours; read-out: EC50 Normal
pEC50: −log10 of the molar value.
Reported pEC50 by item:
Property: pEC50

INSERT INTO measurements (compound, experimental_system, reported_result) VALUES
  ('CCCCCCCCCCCCCCC[C@@H](O)[C@H](CO)NC(=O)CCl', 'normal samples (PBMCs and/or CD34+ cells)', 4.87),
  ('CCCCCCCCCCCCCCC[C@@H](O)[C@H](CO)NC(=O)CBr [SABRAC, reference compound]', 'normal samples (PBMCs and/or CD34+ cells)', 6.35);
